- ASSAY REMARKS: MMV: Cytotoxicity against human fibroblasts (MRC-5) cells.
- CONDITION CONTEXT: MRC-5 cells (human fibroblasts)
Below, each entry is listed alongside its reported IC50.
Give the number; µM is assumed, so skip it.

Examples with their reported IC50 follow.
[
  {
    "COMPOUND": "CCc1c(C)c(=N)c2ccccc2n1C",
    "PARAMETER MEASURED": "IC50",
    "DISPLAY UNIT": "µM",
    "MEASURED RESULT": 6.89
  },
  {
    "COMPOUND": "c1ccc(CNc2nc(Nc3ccccc3)nc3ccccc23)cc1",
    "PARAMETER MEASURED": "IC50",
    "DISPLAY UNIT": "µM",
    "MEASURED RESULT": 3.36
  },
  {
    "COMPOUND": "CCN1CCN(c2cc(C)c3cc(NC(=O)c4ccc(OC)c(OC)c4)ccc3n2)CC1",
    "PARAMETER MEASURED": "IC50",
    "DISPLAY UNIT": "µM",
    "MEASURED RESULT": 5.46
  },
  {
    "COMPOUND": "Oc1c(CN2CCN(c3ccccc3F)CC2)cc(Br)c2cccnc12",
    "PARAMETER MEASURED": "IC50",
    "DISPLAY UNIT": "µM",
    "MEASURED RESULT": 5.58
  }
]

Incoming: Quickly give me recorded IC50 for CCN(CC)CCn1c(=N)n(CC(O)c2ccc(Cl)c(Cl)c2)c2ccccc21 (stereo not drawn)
Outgoing: 16.1

Incoming: Quickly give me recorded IC50 for OCCNc1nc(Nc2ccc(Cl)c(Cl)c2)nc2ccccc12
Outgoing: 4.96

Incoming: Quickly give me recorded IC50 for CC(C)(C)C(=O)Nc1ccc(C(=O)Nc2cccc(-c3nc4ccccc4[nH]3)c2)cc1
Outgoing: 17.9

Incoming: Quickly give me recorded IC50 for N=c1n(CCN2CCCCC2)c2ccccc2n1CC(O)c1cccc(Br)c1 (stereo not drawn)
Outgoing: 27.6

----------
- ASSAY REMARKS: MMV: Cytotoxicity against human fibroblasts (MRC-5) cells.
- CONDITION CONTEXT: MRC-5 cells (human fibroblasts)
pIC50: −log10 of the molar value.
PARAMETER MEASURED: pIC50

Incoming: Quickly give me recorded pIC50 for O=C(Nc1cccc(C2=NCCN2)c1)Nc1cccc(C2=NCCN2)c1 [IMIDOCARB]
Outgoing: < 4.49

Incoming: Quickly give me recorded pIC50 for CCCn1c(=N)c(C(=O)NC2CCCCC2)cc2c(=O)n3cccc(C)c3nc21
Outgoing: < 4.49

Incoming: Quickly give me recorded pIC50 for COc1ccc(NC(=O)C2c3ccccc3C(=O)N(CC(C)C)C2c2cccs2)cc1 (stereo not given)
Outgoing: < 4.49

Incoming: Quickly give me recorded pIC50 for Nc1nc(Nc2cccc(F)c2)nc2ccccc12
Outgoing: < 4.49

Incoming: Quickly give me recorded pIC50 for CCOC(=O)c1c(C)n(-c2ccccc2)c2ccc(OC(=O)c3cc(OC)c(OC)c(OC)c3)cc12
Outgoing: 4.58

Incoming: Quickly give me recorded pIC50 for CCOC(=O)c1cnc2ccc(OC)cc2c1Nc1ccc(N2CCN(C)CC2)cc1
Outgoing: 4.86

Incoming: Quickly give me recorded pIC50 for COc1ccc(N2CCN(C(CNC(=O)CC(C)(C)C)c3ccc4c(c3)OCO4)CC2)cc1 (stereo not given)
Outgoing: < 4.49

Incoming: Quickly give me recorded pIC50 for N#Cc1nc(Cc2cccc3ccccc23)oc1N1CCN(C(c2ccccc2)c2ccccc2)CC1
Outgoing: < 4.49

Incoming: Quickly give me recorded pIC50 for COc1cccc(C=Cc2nc(=O)c3ccccc3o2)c1OC
Outgoing: < 4.49

Incoming: Quickly give me recorded pIC50 for CCN(CC)CCNc1ccnc2cc3ccccc3cc12
Outgoing: 4.91

Taken from ChEMBL document CHEMBL2028040.
